List of TGI values.
- Test system: SNB-75 CNS
- assay_explanation: NCI tumour cell line growth inhibition, 48 h

| compound | unit_label | value_modifier | TGI |
| --- | --- | --- | --- |
| CO/N=C/c1c(-c2ccc(Cl)cc2)c(/C=N/OC)n2c1sc1ccccc12 | µM | > | 100 |
| CCOC(=O)c1nc2ccc(C(F)(F)F)cc2nc1Nc1ccc(OC)c(OC)c1 | µM | = | 67.4 |
| Cc1cccc2c(=O)c3c(sc12)c(NCCN)nc1ccccc13 | µM | = | 2.79 |
| N#Cc1ccccc1/C=N/O | µM | > | 100 |
| O=c1[nH]c(C2CCCCC2)nc2cc(Cl)ccc12 | µM | > | 100 |
| O=C(O)C1CCCN1Cc1ccc2c(c1)OCO2 (configuration not stated) | µM | > | 100 |
| CC1=NN(c2ccccc2)C(=O)C1C(=O)C(=O)Nc1ccc(C)cc1C (configuration not stated) | µM | > | 100 |
| CC1=C(C(=O)Nc2ccc(Cl)c(Cl)c2)C(c2cccc(O)c2)NC(=S)N1 (configuration not stated) | µM | = | 47.8 |
| Cc1cc2nc3c(C#N)c(-c4ccccc4)cc(Nc4cccc(C(F)(F)F)c4)n3c2cc1C | µM | = | 72.9 |
| N=C1N=Nc2nc(C3(c4nc5n(c4O)C(=N)N=N5)Cc4ccccc4C3=O)c(O)n21 (configuration not stated) | µM | > | 100 |
| C[C@]12CCC(=O)C=C1CC[C@@H]1[C@@H]2CC[C@]2(C)C(=O)/C(=C\c3ccccc3)C[C@@H]12 | µM | > | 100 |
| COc1ccc2c(c1)N(CCC1CCCCN1C)c1ccccc1S2 (configuration not stated) | µM | = | 24.6 |
| CCC(CCCCC1CC[C@H]2CC(=O)C[C@@H]12)OC (some centres not stated) | µM | > | 100 |
| CCN(CC)CCCC(C)Nc1ccnc2cc(Cl)c(SCc3ccccc3)cc12 (configuration not stated) | µM | = | 3.32 |
| CCCNNC(=O)c1ccc(CNC(=O)/C=C/c2ccccc2)cc1 | µM | > | 23.5 |
| O=CN/C=C/c1ccccc1O | µM | > | 100 |
| Cc1ccc(C(=O)Nc2ccc(CP(=O)(O)O)cc2)cc1NC(=O)Nc1cc(C(=O)Nc2ccc(CP(=O)(O)O)cc2)ccc1C | µM | > | 100 |
| Cn1cc(C2=C(c3cccc(NCC(O)CO)c3)C(=O)NC2=O)c2cc(Cl)ccc21 (configuration not stated) | µM | = | 9.55 |
| N#C/C(N)=C(\C#N)N=CNc1ccccc1N | µM | > | 100 |
| CCC(C)(C)c1ccc(Oc2cccc(C(=O)O)c2)cc1 | µM | > | 100 |
| O=C(O)c1cn(C2CC2)c2cc(N3CCN(C(=O)Nc4nc(-c5ccc(Cl)cc5)cs4)CC3)c(F)cc2c1=O | µM | = | 20.5 |
| Cc1c(C)c2ccc(O)cc2[nH]c1=O | µM | > | 100 |
| Cn1cc(-c2nc(-c3cn(C)c4ncccc34)cs2)c2cc(F)ccc21 | µM | = | 4.27 |
| N=C(N)c1ccc(-c2ccc(-c3ccc(C(=N)N)cc3)o2)cc1 | µM | > | 100 |
| CC(=O)OCC1OC(OC2CC3C(C)(C)C(=O)CC[C@]3(C)C3CC[C@]45C[C@]4(CCC5[C@@H](C)CC(O)C(O)C(C)(C)O)[C@]23C)C(O)C(O)C1O (some centres not stated) | µM | = | 18.8 |
| Nc1nc(Cl)nc2c1ncn2C1CCC(CO)O1 (configuration not stated) | µM | > | 100 |
| Cc1ccc(S(=O)(=O)NC(=O)Nc2nc(Cl)cc(Cl)n2)cc1 | µM | > | 100 |
| COc1ccc(-n2nnnc2C2(Nc3ccccc3)CCN(Cc3ccccc3)CC2)cc1 | µM | = | 44.7 |
| O=C1/C(=C/c2cccc([N+](=O)[O-])c2)N=C(c2ccccc2)N1c1ccc2c(c1)Sc1cc(N3C(=O)/C(=C/c4cccc([N+](=O)[O-])c4)N=C3c3ccccc3)ccc1N2 | µM | = | 34.3 |
| N.N.N.N.O=S(=O)([O-])[O-].[Co+3].[OH3+].[OH3+] | µM | > | 100 |
| CC[C@@H]1C[C@@H](O)[C@@H]2[C@H](O)[C@H](O)CN2C1 | µM | > | 100 |
| CC(=O)/C=C/c1ccc(N(C)Cc2ccc(C(C)(C)C)cc2)cc1 | µM | = | 345 |
| Clc1ccc(CCn2cncn2)c(Cl)c1 | µM | > | 100 |
| O=C(Nc1cccc2ccccc12)c1cc2ccccc2cc1O | µM | = | 6.11 |
| C/C(=C\c1ccc2c(c1)OCO2)[N+](=O)[O-] | µM | = | 88.2 |
| FC(F)(F)c1ccccc1C=NC12CC3CC(CC(C3)C1)C2 | µM | > | 100 |
| NC(CCCNCc1ccccc1O)C(=O)O (configuration not stated) | µM | > | 100 |
| O=C(Nc1ncc(Cc2ccc(Cl)cc2)s1)c1ccc2c(c1)OCCO2 | µM | = | 3.4 |
| Cc1nn(C(=O)c2ccncc2)c2c1C(c1ccccc1O)SC(N)=N2 (configuration not stated) | µM | > | 10 |
| CCNCCNc1cc(C2CCCC2)c(C#N)c2nc3ccccc3n12 | µM | = | 4.02 |
| O=C(/C=C/c1ccc2c(c1)OCO2)c1ccccc(=O)c1O | µM | = | 33.1 |
